- Test system: hypotension induced by PAF
- method_summary: Inhibition of the hypotensive effect induced by PAF in normotense rats (Test 2)
- Type: in vivo, Male Sprague Dawley rats
- assay_conditions: compound 5 mg/Kg, i.v., 3 min before PAF (0.5 mg/Kg, i.v.); anesthetized rats
- Method: Test 2--Inhibition of the Hypotensive Effect Induced by PAF in normotense Rats. Male Sprague Dawley rats, of 180-220 g of weight, anesthetized with sodium pentobarbital (50 mg/Kg, i.p. 1 mL/100 g) have been used. In order to measure the average arterial pressure, a polyethylene catheter is introduced into the carotide artery. The arterial pressure is recorded with the help of a transducer connected with a R611 Beckman polygraph. The tested compounds are administrated through the femoral vein 3 min. […]
Could you please mark label 1 for values of % Inhibition of the hypotension induced by PAF below 90% and label 0 for values at or above it?

Past entries and their recorded results:
>  <molecule>
CCCCCCCCCCCCCCCCCC1OCC(COC(=O)CCCCC[n+]2ccsc2)O1 (racemic)

>  <label_value>
label 0

$$$$
>  <molecule>
CCCCCCCCCCCCCCCCCC1OCC(COCCCC[n+]2ccccc2)O1 (racemic)

>  <label_value>
label 1

$$$$
>  <molecule>
CCCCCCCCCCCCCCCCCC1OCC(COC(=O)CCCCC[n+]2cccc3ccccc32)O1 (racemic)

>  <label_value>
label 1

$$$$
>  <molecule>
CCCCCCCCCCCCCCCCCC1OCC(COC(=O)CCCCC[n+]2ccccc2)O1 (racemic)

>  <label_value>
label 1

$$$$

Input: Hi there! Is % Inhibition of the hypotension induced by PAF for CCCCCCCCCCCCCCCCCC1OCC(COCCCCCC[n+]2ccccc2)O1 (racemic) below 90%, do you know?
Output: label 1
